Entries and their growth inhibition values follow.
# assay-overview: NCI Yeast Anticancer Drug Screen. Data for the sgs1 mgt1 strain (AID 161);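 further: 0% = growth of cultures given vehicle only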
# run-conditions: S. cerevisiae sgs1 mgt1 strain, active compounds read high; at 50.0 µM unless noted
# Experimental: Growth inhibition of yeast strains with defined genetic alterations is measured as a screen for potential anti-cancer activity. Selected strains with alterations in DNA damage repair or cell cycle control were exposed to compounds and growth inhibition was measured relative to vehicle treated controls. The strain used in this assay is sgs1 mgt1
This is part of a sample that, as a whole, favours compounds with a hit. Of some 79,000 tested, about 15% had one in any assay.

>  <compound>
Nc1ncc(C(=O)O)s1

>  <growth inhibition [%]>
-23.1

$$$$
>  <compound>
Cc1ccc(N(C)S(=O)(=O)c2ccccc2)cc1

>  <growth inhibition [%]>
15.4

$$$$
>  <compound>
CCCCN(Cc1ccccc1)C(=S)Nc1ccccc1

>  <growth inhibition [%]>
64.4

$$$$
>  <compound>
C=CCC(O)CCCCC (stereo unspecified)

>  <growth inhibition [%]>
15.8

$$$$
>  <compound>
Cn1ncc2c(NC(C)(C)CC(C)(C)C)ncnc21

>  <growth inhibition [%]>
1.05

$$$$
>  <compound>
CN(C)c1ccc(-c2nc(-c3cc4c(ccc5ccccc54)oc3=O)cs2)cc1

>  <growth inhibition [%]>
-7.55

$$$$
>  <compound>
C/C(CCc1ccccc1)=N\NC(N)=S

>  <growth inhibition [%]>
9.55

$$$$
>  <compound>
CCN(CC)c1c(C)c(-c2ccccc2)n[n+]([O-])c1-c1ccccc1

>  <growth inhibition [%]>
14.4

$$$$
>  <compound>
COc1ccc(NC(=O)/C(=N\NC(=O)C[n+]2ccccc2)c2c(O)c3ccc(O)cc3oc2=O)c([N+](=O)[O-])c1

>  <growth inhibition [%]>
29.4

$$$$
>  <compound>
C/C=C(\C)c1cc(=O)c2c(C)cc3c(c2o1)C(OC)(OC(C)=O)c1c(O)c(C2CC(C)(N(C)C)C(OC(C)=O)C(C)O2)cc(C2CC(N(C)C)C(OC(C)=O)C(C)O2)c1C3=O (stereo unspecified)

>  <growth inhibition [%]>
-30.8

$$$$
>  <compound>
CC(=O)NC(CCC(C)C)C(=O)O (stereo unspecified)

>  <growth inhibition [%]>
4.75

$$$$
>  <compound>
Fc1ccc2c(c1)-c1ccccc1C2

>  <growth inhibition [%]>
-2.65

$$$$
>  <compound>
COC1C(OC(=O)c2ccc(C)[nH]2)C(O)C(Oc2ccc3c(O)c(NC(=O)c4c[nH]c(C(=O)Nc5c(O)c6ccc(OC7OC(C)(C)C(OC)C(OC(=O)c8ccc(C)[nH]8)C7O)c(C)c6oc5=O)c4C)c(=O)oc3c2C)OC1(C)C (stereo unspecified)

>  <growth inhibition [%]>
15.2

$$$$
>  <compound>
O=[N+]([O-])c1cccc(/C=N/Nc2ccc(S(=O)(=O)O)cc2)c1

>  <growth inhibition [%]>
-1.9

$$$$
>  <compound>
CCN(CC)CCCCCCNc1cc(O)cc2cccnc12

>  <growth inhibition [%]>
44

$$$$
>  <compound>
CCOC=Nc1ccc(-n2cnc3c(Cl)ncnc32)cc1C

>  <growth inhibition [%]>
-16.6

$$$$
>  <compound>
CC(=O)OCC(C)O (stereo unspecified)

>  <growth inhibition [%]>
14.3

$$$$
>  <compound>
CCCCCCCCCCCCCCCCCC(O)CCCCCCCCCCCCCCCCC

>  <growth inhibition [%]>
-7.75

$$$$
>  <compound>
CN1OC(=O)OC(C)(c2ccccc2)C1=O (stereo unspecified)

>  <growth inhibition [%]>
-2.3

$$$$
>  <compound>
COc1cccc(C2c3cc4c(cc3OC(NNS(=O)(=O)c3ccc(C)cc3)C2C)OCO4)c1OC (stereo unspecified)

>  <growth inhibition [%]>
10.3

$$$$
>  <compound>
O=C(Nc1ccccn1)c1ccccc1Cl

>  <growth inhibition [%]>
-9.5

$$$$
>  <compound>
CC[N+]1(CN2CCCCC2)CCCCC1

>  <growth inhibition [%]>
4

$$$$
>  <compound>
CCCOCC[N+](C)(C)C

>  <growth inhibition [%]>
8.65

$$$$
>  <compound>
COC(=O)C1CCC(=O)N1Cc1cccs1 (stereo unspecified)

>  <growth inhibition [%]>
-11.1

$$$$
>  <compound>
NC(=O)C1OCOC2C(CO)OCOC12 (stereo unspecified)

>  <growth inhibition [%]>
-3

$$$$
>  <compound>
NC(=S)N/N=C/c1ccc([N+](=O)[O-])s1

>  <growth inhibition [%]>
19.9

$$$$
>  <compound>
CC1=C(N2CCOCC2)C(N2CCOCC2)C(C)C1=O (stereo unspecified)

>  <growth inhibition [%]>
-4.8

$$$$
>  <compound>
O=Cc1c[nH]c2ccc(F)cc12

>  <growth inhibition [%]>
20.6

$$$$
>  <compound>
FC(F)(F)C1CCCCC1[Si](C1CCCCC1C(F)(F)F)C1CCCCC1C(F)(F)F (stereo unspecified)

>  <growth inhibition [%]>
13.7

$$$$
>  <compound>
O=[N+]([O-])C(c1ccccc1)C(c1ccccc1)C(c1ccccc1)[N+](=O)[O-] (stereo unspecified)

>  <growth inhibition [%]>
5.6

$$$$
>  <compound>
O=C(CCl)Nc1cc2ccccc2oc1=O

>  <growth inhibition [%]>
20.6

$$$$
>  <compound>
O=C(Oc1ccc(Cl)cc1)c1ccc([N+](=O)[O-])cc1

>  <growth inhibition [%]>
9.9

$$$$
>  <compound>
Cc1cc(Cl)ccc1NC(=O)CC/C(CC(=O)C(C)C)=N\NC(=O)C[n+]1ccccc1

>  <growth inhibition [%]>
-20.4

$$$$
>  <compound>
COc1ccc(C(=O)/C=C/c2ccc(OCC#N)cc2)cc1OC

>  <growth inhibition [%]>
-38.5

$$$$
>  <compound>
O=C(O)CCNCCC(=O)O

>  <growth inhibition [%]>
3.6

$$$$
>  <compound>
CCCCOC(=O)NC(=O)c1cc2cc(Cl)ccc2oc1=O

>  <growth inhibition [%]>
13.9

$$$$
>  <compound>
CCN(CC)CCOc1ccc(N2C(=O)c3cc(OC)c(OC)cc3C2=O)cc1

>  <growth inhibition [%]>
-14.9

$$$$
>  <compound>
CNC(=O)C1C(=O)NC(=O)C1=C1CCCC1 (stereo unspecified)

>  <growth inhibition [%]>
4.8

$$$$
>  <compound>
Nn1c(CCCl)nc2c(Br)cc(Br)cc2c1=O

>  <growth inhibition [%]>
-2.45

$$$$
>  <compound>
NC(=S)N/N=C\c1cccc(O)c1O

>  <growth inhibition [%]>
21

$$$$
>  <compound>
Nc1nc2ncn(CCO)c2c(=O)[nH]1

>  <growth inhibition [%]>
2.8

$$$$

---

Entries and their growth inhibition values follow.
# assay-overview: NCI Yeast Anticancer Drug Screen. Data for the bub3 strain (AID 167)
# run-conditions: S. cerevisiae bub3 mutant strain, active compounds read high; at 50.0 µM unless noted
This is part of a sample that, as a whole, favours compounds with a hit. Of some 79,000 tested, about 15% had one in any assay. Where a SMILES comes first, the peptide text is derived from it. The star is where a group is joined. Cbz = O=C(OCc1ccccc1)*

>  <molecule>
CC(=O)COC(=O)c1ccccc1

>  <growth inhibition (%)>
10.2

$$$$
>  <molecule>
O=[N+]([O-])C(C(Cl)=C(Cl)Cl)=C(N1CCOCC1)N1CCOCC1

>  <growth inhibition (%)>
5.1

$$$$
>  <molecule>
CC1=C(CCC(=O)O)c2cc3nc(cc4[nH]c(cc5[nH]c(cc1n2)c(C)c5C1CC1C(=O)O)c(C)c4C1CC1C(=O)O)C(C)=C3CCC(=O)O (stereo unspecified)

>  <growth inhibition (%)>
13.2

$$$$
>  <molecule>
O=C(c1ccccc1)C(c1ccccc1)C(Cl)c1ccccc1 (stereo unspecified)

>  <growth inhibition (%)>
-3.2

$$$$
>  <molecule>
COC1OC(CO)C(O)C(Nc2ccc([N+](=O)[O-])cc2[N+](=O)[O-])C1O (stereo unspecified)

>  <growth inhibition (%)>
-10.8

$$$$
>  <molecule>
COC1=CC(=O)C2CC=CC(CC(=O)O)C2(C)C1=O (stereo unspecified)

>  <growth inhibition (%)>
7.3

$$$$
>  <molecule>
CC(=O)[CH-]C(=O)c1ccccc1.CC(=O)[CH-]C(=O)c1ccccc1.CC1(C)OCC(C2OC3OC(C)(C)OC3C2[O-])O1.CC[O-].[Ti+4] (stereo unspecified)

>  <growth inhibition (%)>
31.2

$$$$
>  <molecule>
Cc1ccc(NC(=O)C2CCCCC2)cc1

>  <growth inhibition (%)>
-6.25

$$$$
>  <molecule>
NC(=O)C(Cc1ccccc1)NC(=O)C(Cc1ccccc1)NC(=O)C(Cc1ccccc1)NC(=O)OCc1ccccc1 (stereo not drawn) (Cbz-Phe-Phe-Phe-NH2; configuration not given here)

>  <growth inhibition (%)>
-5.2

$$$$
>  <molecule>
Cc1ccc(Nc2nc(N)nc3c2ncn3C2OC(CO)C(O)C2O)cc1 (stereo unspecified)

>  <growth inhibition (%)>
18.6

$$$$
>  <molecule>
CC(=O)OC(C)(C)C#CC(C)(C)OC(C)=O

>  <growth inhibition (%)>
-11.7

$$$$
>  <molecule>
O=C1OC(Oc2ccccc2)c2cc3c(cc21)OCO3 (stereo unspecified)

>  <growth inhibition (%)>
17.9

$$$$
>  <molecule>
CN(CCO)c1ccccc1

>  <growth inhibition (%)>
-48.4

$$$$
>  <molecule>
CCOC(=O)c1[nH]c(-c2[nH]c(-c3[nH]c(-c4[nH]c(C(=O)OCC)c(C)c4C(=O)OCC)c(C(=O)OCC)c3C)c(C)c2C(=O)OCC)c(C(=O)OCC)c1C

>  <growth inhibition (%)>
-14.1

$$$$
>  <molecule>
CC(C)(C)CNCCO

>  <growth inhibition (%)>
-7.55

$$$$
>  <molecule>
O=C(O)CCC1NCCCO1 (stereo unspecified)

>  <growth inhibition (%)>
-4.15

$$$$

These measurements were taken from PubChem BioAssay (NCI).
